Target Under Test: T1, hArtemin-MMH (human)
T1 construct: also called hARTN.mmh; hARTN (A108-G220).mmh
T1 chain: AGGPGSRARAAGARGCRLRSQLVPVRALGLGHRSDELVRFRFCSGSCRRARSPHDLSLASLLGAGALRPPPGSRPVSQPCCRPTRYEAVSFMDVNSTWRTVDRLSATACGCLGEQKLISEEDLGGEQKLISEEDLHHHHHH
Experimental Protocol: SPR Biacore T200, hArtemin-MMH captured by anti-myc mAb, mAb injected, 25 C
Entries and their measured koff follow.
Respond with the bare value in s⁻¹.

Known results for binders:
Binder	koff / s⁻¹
H4H33336P (antibody, human IgG4 S228P, kappa, V domains shown, Fully human antibody; also called Artemin mAb; anti-ARTN antibody) VH: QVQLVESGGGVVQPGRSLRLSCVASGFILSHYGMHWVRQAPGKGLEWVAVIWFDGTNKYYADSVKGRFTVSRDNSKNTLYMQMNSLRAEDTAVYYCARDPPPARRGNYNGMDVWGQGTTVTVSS VL: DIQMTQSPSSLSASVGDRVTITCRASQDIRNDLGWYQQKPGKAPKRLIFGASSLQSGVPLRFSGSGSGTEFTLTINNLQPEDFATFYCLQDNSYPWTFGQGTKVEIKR	3.75e-05
H4H33349P (antibody, human IgG4 S228P, kappa, V domains shown, Fully human antibody; also called Artemin mAb; anti-ARTN antibody) VH: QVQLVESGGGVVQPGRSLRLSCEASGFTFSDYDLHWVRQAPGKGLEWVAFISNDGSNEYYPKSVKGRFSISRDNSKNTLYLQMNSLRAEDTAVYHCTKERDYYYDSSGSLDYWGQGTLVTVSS VL: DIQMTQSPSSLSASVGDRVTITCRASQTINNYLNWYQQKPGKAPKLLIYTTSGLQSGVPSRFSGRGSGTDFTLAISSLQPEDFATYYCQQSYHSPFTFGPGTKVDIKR	5.9e-05

Kindly note the recorded koff for H4H33335P (antibody, human IgG4 S228P, kappa, V domains shown, Fully human antibody; also called Artemin mAb; anti-ARTN antibody) VH: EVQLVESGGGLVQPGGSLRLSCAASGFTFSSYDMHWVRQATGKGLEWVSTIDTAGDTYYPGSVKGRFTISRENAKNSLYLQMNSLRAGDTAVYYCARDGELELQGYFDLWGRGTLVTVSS VL: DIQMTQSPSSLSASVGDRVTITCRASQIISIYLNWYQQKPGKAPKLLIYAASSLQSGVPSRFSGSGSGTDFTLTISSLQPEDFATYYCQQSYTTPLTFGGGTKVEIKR , which is 0.00019

Kindly note the recorded koff for H4H33331P (antibody, human IgG4 S228P, kappa, V domains shown, Fully human antibody (human variable and constant domains) from a VELOCIMMUNE mouse; also called Artemin mAb; anti-ARTN antibody) VH: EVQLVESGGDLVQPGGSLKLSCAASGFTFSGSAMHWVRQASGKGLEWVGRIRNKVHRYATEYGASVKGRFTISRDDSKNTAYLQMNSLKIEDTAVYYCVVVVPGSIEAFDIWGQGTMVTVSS VL: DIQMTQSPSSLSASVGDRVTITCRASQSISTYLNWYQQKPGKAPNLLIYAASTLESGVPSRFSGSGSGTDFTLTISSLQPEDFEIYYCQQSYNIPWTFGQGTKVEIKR , which is 0.000366
